Just for reference, ChEMBL document CHEMBL1156067 is where these values come from.

Please provide measured IC50 for the entries that follow.
Target: Melanin-concentrating hormone receptor 1 (Homo sapiens, UniProt Q99705)
Sequence (Q99705 whole entry, looked up): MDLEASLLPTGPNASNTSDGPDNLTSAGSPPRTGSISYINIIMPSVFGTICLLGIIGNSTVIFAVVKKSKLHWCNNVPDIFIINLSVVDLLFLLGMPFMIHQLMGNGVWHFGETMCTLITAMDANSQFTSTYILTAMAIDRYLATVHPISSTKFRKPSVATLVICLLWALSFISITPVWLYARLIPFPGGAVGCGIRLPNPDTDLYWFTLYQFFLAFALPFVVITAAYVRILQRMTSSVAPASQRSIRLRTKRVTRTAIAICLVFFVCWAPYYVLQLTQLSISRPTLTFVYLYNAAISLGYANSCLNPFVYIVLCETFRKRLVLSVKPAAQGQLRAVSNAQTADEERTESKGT
Experiment: Antagonist activity at CART form of human MCH1 receptor expressed in HEK293 cells coexpressing Galphaq assessed as inhibition of MCH-induced intracellular calcium level by FLIPR assay
One number for each entry, in nM.

Quick batch: IC50 for everything below.
1. CN(C)c1cc(N(C)C)nc(N[C@H]2CC[C@@H](NC(=O)c3ccc(F)c(F)c3)CC2)n1
2. Cc1cnc(N[C@H]2CC[C@@H](CNC(=O)c3cccc(C(F)(F)F)c3)CC2)nc1N(C)C
3. COc1cccc(C(=O)N[C@H]2CC[C@@H](Nc3nc(C)cc(N(C)C)n3)CC2)c1
4. Cc1cnc(N[C@H]2CC[C@@H](CNC(=O)c3cc(Cl)cc(Cl)c3)CC2)nc1N(C)C
5. Cc1ccc(C(=O)N[C@H]2CC[C@@H](Nc3ncc(C)c(N(C)C)n3)CC2)cc1
6. Cc1cccc(C(=O)N[C@H]2CC[C@@H](Nc3nc(C)cc(N(C)C)n3)CC2)c1

1. 58
2. 26
3. 7.6
4. 4
5. 13
6. 9.6
